- protocol.text: Simulated Intestinal Fluid (SIF) Stability Assay
- Format: in vitro ADME
- test.conditions: pig, simulated intestinal fluid (SIF) with 1% porcine pancreatin, pH 6.5, porcine pancreatin, 37° C.; dimers, Table 7
Where a SMILES comes first, the peptide text is derived from it.
readout.type: half-life at 22 μM

Request: # half-life at 22 μM lookup, item CC(C)C[C@@H]1NC(=O)[C@H]([C@@H](C)O)NC(=O)[C@H](CC(=O)O)NC(=O)[C@H](CO)NC(=O)[C@H](CCCNC(=N)N)N(C)C(=O)c2ccccc2CSC(C)(C)[C@@H](C(=O)N[C@@H](Cc2c[nH]c3ccccc23)C(=O)N[C@@H](CCC(=O)O)C(=O)N(C)[C@H](CCCCN)C(N)=O)NC1=O [compound 152] (HELM PEPTIDE1{[meR].S.D.T.L.[Pen].W.E.[CN([C@H](CCCCN)C(=O)[*:2])[*:1]].[am]}|CHEM1{[O=C(c1ccccc1C[*:2])[*:1]]}$PEPTIDE1,CHEM1,1:R1-1:R1|PEPTIDE1,CHEM1,6:R3-1:R2$$$V2.0)
Result: > 3 h

Request: # half-life at 22 μM lookup, item CC(C)C[C@@H]1NC(=O)[C@H]([C@@H](C)O)NC(=O)[C@H](CC(=O)O)NC(=O)[C@H](CO)NC(=O)[C@H](CCCNC(=N)N)N(C)C(=O)C(C)SC[C@@H](C(=O)N[C@@H](Cc2c[nH]c3ccccc23)C(=O)N[C@H](CCCCN)C(N)=O)NC1=O (single isomer, unassigned) [compound 144]
Result: < 0.333 h

Request: # half-life at 22 μM lookup, item CC(C)C[C@@H]1NC(=O)[C@H]([C@@H](C)O)NC(=O)[C@H](CC(=O)O)NC(=O)[C@H](CO)NC(=O)[C@H](CCCNC(=N)N)N(C)C(=O)c2ccccc2CSC[C@@H](C(=O)N2Cc3ccccc3C[C@H]2C(=O)N[C@H](CCCCN)C(N)=O)NC1=O [compound 216] (HELM PEPTIDE1{[meR].S.D.T.L.C.[Tic].[dK].[am]}|CHEM1{[O=C(c1ccccc1C[*:2])[*:1]]}$PEPTIDE1,CHEM1,1:R1-1:R1|PEPTIDE1,CHEM1,6:R3-1:R2$$$V2.0)
Result: > 3 h

* * *

- experimental.system: RPMI 8866 cells (Homo sapiens, UniProt P13612+P26010)
- Sequence (P13612 34-1032): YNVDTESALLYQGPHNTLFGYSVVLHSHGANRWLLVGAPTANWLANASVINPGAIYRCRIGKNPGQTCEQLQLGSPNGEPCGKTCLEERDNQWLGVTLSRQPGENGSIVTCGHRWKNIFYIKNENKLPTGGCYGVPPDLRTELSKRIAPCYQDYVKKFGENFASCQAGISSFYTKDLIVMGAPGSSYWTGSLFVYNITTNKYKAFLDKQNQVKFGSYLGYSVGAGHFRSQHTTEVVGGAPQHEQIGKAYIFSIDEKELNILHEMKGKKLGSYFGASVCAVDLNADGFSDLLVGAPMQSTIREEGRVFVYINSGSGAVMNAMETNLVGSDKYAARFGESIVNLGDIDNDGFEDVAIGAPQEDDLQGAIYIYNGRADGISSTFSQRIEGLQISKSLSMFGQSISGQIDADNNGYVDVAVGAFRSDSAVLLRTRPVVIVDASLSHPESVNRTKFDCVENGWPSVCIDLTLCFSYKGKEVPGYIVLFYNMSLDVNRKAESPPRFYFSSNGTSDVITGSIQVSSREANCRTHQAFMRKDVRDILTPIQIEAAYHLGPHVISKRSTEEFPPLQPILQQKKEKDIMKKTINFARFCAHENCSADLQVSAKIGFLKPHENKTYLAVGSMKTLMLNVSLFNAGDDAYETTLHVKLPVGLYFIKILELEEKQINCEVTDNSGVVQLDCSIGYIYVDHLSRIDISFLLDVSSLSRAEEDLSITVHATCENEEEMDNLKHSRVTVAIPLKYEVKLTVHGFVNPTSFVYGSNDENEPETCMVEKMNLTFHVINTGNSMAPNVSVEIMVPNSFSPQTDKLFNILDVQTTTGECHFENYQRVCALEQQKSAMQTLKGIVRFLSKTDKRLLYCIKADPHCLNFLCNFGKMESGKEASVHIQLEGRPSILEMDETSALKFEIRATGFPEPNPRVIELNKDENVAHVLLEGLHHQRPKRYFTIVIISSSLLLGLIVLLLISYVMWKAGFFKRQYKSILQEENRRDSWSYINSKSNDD
- Sequence (P26010 20-798): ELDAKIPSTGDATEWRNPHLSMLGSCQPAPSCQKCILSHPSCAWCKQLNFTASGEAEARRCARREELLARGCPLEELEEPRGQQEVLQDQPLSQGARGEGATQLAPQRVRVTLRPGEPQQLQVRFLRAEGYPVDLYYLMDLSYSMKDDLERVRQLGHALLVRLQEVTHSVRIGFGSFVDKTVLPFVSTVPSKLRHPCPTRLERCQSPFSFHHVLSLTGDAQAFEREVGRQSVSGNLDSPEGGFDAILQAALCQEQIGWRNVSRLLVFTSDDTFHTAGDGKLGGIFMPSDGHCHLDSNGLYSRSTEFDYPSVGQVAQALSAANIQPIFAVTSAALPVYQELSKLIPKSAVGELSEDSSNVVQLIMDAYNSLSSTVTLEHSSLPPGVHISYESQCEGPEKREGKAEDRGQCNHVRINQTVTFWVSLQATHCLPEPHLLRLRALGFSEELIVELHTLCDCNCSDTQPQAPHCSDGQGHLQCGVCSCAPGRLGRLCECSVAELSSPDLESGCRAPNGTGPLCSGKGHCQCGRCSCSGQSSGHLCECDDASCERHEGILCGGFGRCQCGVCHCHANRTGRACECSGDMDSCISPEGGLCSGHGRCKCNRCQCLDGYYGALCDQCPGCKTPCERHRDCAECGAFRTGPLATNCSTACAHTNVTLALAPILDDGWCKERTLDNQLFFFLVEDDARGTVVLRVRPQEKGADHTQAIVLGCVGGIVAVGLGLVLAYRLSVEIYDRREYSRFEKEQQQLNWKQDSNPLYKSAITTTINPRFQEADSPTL
- protocol.text: α4β7-MAdCAM Cell Adhesion Assay
- Format: cell-based
- test.conditions: thioether monomer peptides, Table 6; read-out: Cell-Adhesion A4B7
Where a SMILES comes first, the peptide text is derived from it.
readout.type: IC50

Request: # IC50 lookup, item CC(C)C[C@@H]1NC(=O)[C@H]([C@@H](C)O)NC(=O)[C@H](CC(=O)O)NC(=O)[C@H](CO)NC(=O)[C@H](CCCNC(=N)N)N(C)C(=O)c2ccccc2CSC(C)(C)[C@@H](C(=O)N[C@@H](Cc2c[nH]c3ccccc23)C(=O)N[C@@H](CCC(=O)O)C(=O)N[C@@H](CCN)C(N)=O)NC1=O [compound 93] (HELM PEPTIDE1{[meR].S.D.T.L.[Pen].W.E.[Dab].[am]}|CHEM1{[O=C(c1ccccc1C[*:2])[*:1]]}$PEPTIDE1,CHEM1,1:R1-1:R1|PEPTIDE1,CHEM1,6:R3-1:R2$$$V2.0)
Result: 25 to 100 nM

// provenance: patent US20260217767A1
